Values from patent US10780090B2

Biological target: recombinant human SAE enzyme (Homo sapiens (Human), UniProt Q9UBT2)
Sequence (Q9UBT2 whole entry): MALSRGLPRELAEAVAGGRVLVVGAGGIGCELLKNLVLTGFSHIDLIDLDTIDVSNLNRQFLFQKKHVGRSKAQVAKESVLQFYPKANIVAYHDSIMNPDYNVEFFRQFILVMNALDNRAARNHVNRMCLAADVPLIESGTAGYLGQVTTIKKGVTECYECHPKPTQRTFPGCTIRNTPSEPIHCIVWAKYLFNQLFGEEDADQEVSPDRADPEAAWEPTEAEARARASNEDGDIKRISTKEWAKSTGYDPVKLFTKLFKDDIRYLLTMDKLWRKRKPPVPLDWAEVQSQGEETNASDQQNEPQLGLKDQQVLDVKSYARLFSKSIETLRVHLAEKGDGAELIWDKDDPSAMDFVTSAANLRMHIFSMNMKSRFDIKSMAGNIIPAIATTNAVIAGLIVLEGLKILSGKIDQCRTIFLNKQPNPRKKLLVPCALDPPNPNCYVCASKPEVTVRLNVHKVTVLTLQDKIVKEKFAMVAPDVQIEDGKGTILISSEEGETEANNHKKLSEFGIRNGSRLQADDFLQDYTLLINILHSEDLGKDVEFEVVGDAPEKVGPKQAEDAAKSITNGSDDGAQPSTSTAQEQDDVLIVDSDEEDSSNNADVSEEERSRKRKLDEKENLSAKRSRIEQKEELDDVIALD
Sequence (Q9UBE0 whole entry partner): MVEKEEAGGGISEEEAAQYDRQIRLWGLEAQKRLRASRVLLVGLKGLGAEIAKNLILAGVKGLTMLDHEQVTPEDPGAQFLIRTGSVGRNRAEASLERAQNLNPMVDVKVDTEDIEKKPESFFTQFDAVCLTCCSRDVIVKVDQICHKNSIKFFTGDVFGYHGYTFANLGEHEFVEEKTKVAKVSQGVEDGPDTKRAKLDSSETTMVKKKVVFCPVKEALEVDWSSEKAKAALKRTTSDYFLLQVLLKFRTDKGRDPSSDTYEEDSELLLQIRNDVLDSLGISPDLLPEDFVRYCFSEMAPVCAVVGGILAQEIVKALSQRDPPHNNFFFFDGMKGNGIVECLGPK
Assay: SAE HTRF enzyme assay
Format: biochemical
Details: SAE inhibition; class symbols, legend in nM
Procedure: Example 215: SAE HTRF enzyme assay The SAE enzymatic reaction totals 50 μl and contains 50 mM HEPES Hemisodium (pH 7.5), 0.05% BSA, 5 mM MgCl2, 0.5 μM ATP, 250 μM GSH, 0.01 μM Ubc9-GST, 0.125 μM Sumo-Flag and 0.11 nM recombinant human SAE enzyme. […] After incubation for 2 hours at 24° C., quantification of FRET is performed on the Pherostar™ (BMG Labtech). Percentage inhibition values at a single concentration or enzyme inhibition (IC50) values are determined from those curves. […]
PROPERTY: IC50

Ask: Given the entry Cc1sc(C(=O)c2cncnc2N[C@@H]2C[C@H](COS(N)(=O)=O)[C@@H](O)C2)cc1[C@@H]1OCCc2sc(C(F)(F)F)nc21 (mixture of isomers) [I-315] , report its measured IC50.
Reply: < 10 nM

Ask: Continue with Cc1sc(C(=O)c2cncnc2N[C@@H]2C[C@H](COS(N)(=O)=O)[C@@H](O)C2)cc1[C@@H]1OCCc2ccc(Cl)nc21 (single isomer, unassigned) [I-286a]
Reply: 100 to 1000 nM

Ask: Continue with C[C@@]1(c2csc(C(=O)c3cncnc3N[C@@H]3C[C@H](COS(N)(=O)=O)[C@@H](O)C3)c2)NCCc2ccccc21.C[C@]1(c2csc(C(=O)c3cncnc3N[C@@H]3C[C@H](COS(N)(=O)=O)[C@@H](O)C3)c2)NCCc2ccccc21 (mixture of isomers) [I-318]
Reply: < 10 nM

Ask: Continue with Cc1sc(C(=O)c2cncnc2N[C@@H]2C[C@H](COS(N)(=O)=O)[C@@H](O)C2)cc1[C@H]1SCc2ccc(Cl)cc21 (racemic) [I-359b]
Reply: < 10 nM

----------
Entries and their pIC50 values follow.
Target: recombinant human SAE enzyme (Homo sapiens (Human), UniProt Q9UBT2)
Assay: SAE HTRF enzyme assay
Type: biochemical
Conditions: class symbols A/B/C
pIC50: −log10 of the molar value.

Worked cases, pIC50 given:
COMPOUND	pIC50
CC(C)(O)c1ccc(C(=O)c2cncnc2N[C@@H]2C[C@H](COS(N)(=O)=O)[C@@H](O)C2)s1	6.00 to 7.00
COCc1sc(C(=O)c2cncnc2N[C@@H]2C[C@H](COS(N)(=O)=O)[C@@H](O)C2)cc1C(O)c1cccc(Cl)c1 (single isomer, unassigned) [I-7b]	> 8.00
N[C@H](c1cccc(Cl)c1)c1csc(C(=O)c2cncnc2N[C@@H]2C[C@H](COS(N)(=O)=O)[C@@H](O)C2)c1 (mixture of isomers) [I-36]	> 8.00
C[C@](O)(c1ccccc1)c1coc(C(=O)c2cncnc2N[C@@H]2C[C@H](COS(N)(=O)=O)[C@@H](O)C2)c1 (single isomer, unassigned) [I-58b]	> 8.00
NS(=O)(=O)OC[C@H]1C[C@@H](Nc2ncncc2C(=O)c2cc(CN3Cc4ccccc4C3)cs2)C[C@@H]1O	7.00 to 8.00

# evaluate next
Ask: Given the entry NS(=O)(=O)OC[C@H]1C[C@@H](Nc2ncncc2C(=O)c2cc([C@@H]3OCCc4ccc(Cl)nc43)c(Cl)s2)C[C@@H]1O (single isomer, unassigned) [I-276a] , report its measured pIC50.
Reply: 6.00 to 7.00

----------
Target: recombinant human SAE enzyme (Homo sapiens (Human), UniProt Q9UBT2)
Experiment: SAE HTRF enzyme assay
Assay type: biochemical
Settings: Concentration 0.111 μM; read-out: Percent Inhibition
PROPERTY: inhibition at 0.111 µM (%)
// return numeric value only (unit: %, not printed)

Worked cases, inhibition at 0.111 µM given:
COMPOUND	READOUT_UNITS	ASSAY_RESULT
COCc1sc(C(=O)c2cncnc2N[C@@H]2C[C@H](COS(N)(=O)=O)[C@@H](O)C2)cc1Cc1cccc(Cl)c1	%	100
Cc1sc(C(=O)c2cncnc2N[C@@H]2C[C@H](COS(N)(=O)=O)[C@@H](O)C2)cc1[C@@H]1NCCc2ccc(Cl)cc21 [I-263a]	%	101
CSc1cccc(Cc2csc(C(=O)c3cncnc3N[C@@H]3C[C@H](COS(N)(=O)=O)[C@@H](O)C3)c2)c1	%	98
Cc1sc(C(=O)c2cncnc2N[C@@H]2C[C@H](COS(N)(=O)=O)[C@@H](O)C2)cc1CN1CCc2cccnc21	%	90
NS(=O)(=O)OC[C@H]1C[C@@H](Nc2ncncc2C(=O)c2ccc(Cc3ccccc3)o2)C[C@@H]1O	%	95
NS(=O)(=O)OC[C@H]1C[C@@H](Nc2ncncc2C(=O)c2cc(Cc3cccc(Cl)c3Cl)cs2)C[C@@H]1O	%	92
NS(=O)(=O)OC[C@H]1C[C@@H](Nc2ncncc2C(=O)c2cc(COc3ccccc3Br)cs2)C[C@@H]1O	%	97
NS(=O)(=O)OC[C@H]1C[C@@H](Nc2ncncc2C(=O)c2cc(CN3CCc4sccc4C3)cs2)C[C@@H]1O	%	90
NS(=O)(=O)OC[C@H]1C[C@@H](Nc2ncncc2C(=O)c2cc(Cc3ccccc3Cl)cs2)C[C@@H]1O	%	91
NS(=O)(=O)OC[C@H]1C[C@@H](Nc2ncncc2C(=O)c2cc(CSc3ccccc3Cl)cs2)C[C@@H]1O	%	94

Ask: recombinant human SAE enzyme (Homo sapiens (Human), UniProt Q9UBT2) / inhibition at 0.111 µM / `Cc1oc(C(=O)c2cncnc2N[C@@H]2C[C@H](COS(N)(=O)=O)[C@@H](O)C2)cc1Cc1cccc(Br)c1` : value?
Reply: 99

Ask: Continue with `NS(=O)(=O)OC[C@H]1C[C@@H](Nc2ncncc2C(=O)c2cc(Cc3ccc(Cl)cc3)cs2)C[C@@H]1O`
Reply: 92

Ask: Continue with `Cc1sc(C(=O)c2cncnc2N[C@@H]2C[C@H](COS(N)(=O)=O)[C@@H](O)C2)cc1Cc1cccc(Br)c1`
Reply: 99

Ask: Continue with `NS(=O)(=O)OC[C@H]1C[C@@H](Nc2ncncc2C(=O)c2cc(Cc3cccc(F)c3)cs2)C[C@@H]1O`
Reply: 97

Ask: Continue with `NS(=O)(=O)OC[C@H]1C[C@@H](Nc2ncncc2C(=O)c2cc(Cc3cccc(Cl)c3)c(F)s2)C[C@@H]1O`
Reply: 98

----------
Molecular target: recombinant human SAE enzyme (Homo sapiens (Human), UniProt Q9UBT2)
Experiment: SAE HTRF enzyme assay
Assay type: biochemical
Details: class symbols A/B/C
pIC50: −log10 of the molar value.
PROPERTY: pIC50

Worked cases, pIC50 given:
MOLECULE	TESTED_SYSTEM	PROPERTY	ASSAY_RESULT
Cc1sc(C(=O)c2cncnc2NC2CC(O)C(COS(N)(=O)=O)C2)cc1C1OCCc2ccccc21 (mixture of isomers)	recombinant human SAE enzyme (Homo sapiens (Human), UniProt Q9UBT2)	pIC50	> 8.00
CC(C)(O)c1ccc(C(=O)c2cncnc2N[C@@H]2C[C@H](COS(N)(=O)=O)[C@@H](O)[C@H]2O)s1	recombinant human SAE enzyme (Homo sapiens (Human), UniProt Q9UBT2)	pIC50	7.00 to 8.00
NS(=O)(=O)OC[C@H]1C[C@@H](Nc2ncncc2C(=O)c2ccc(-c3ccccc3)o2)[C@H](O)[C@@H]1O	recombinant human SAE enzyme (Homo sapiens (Human), UniProt Q9UBT2)	pIC50	> 8.00
NS(=O)(=O)OC[C@H]1C[C@@H](Nc2ncncc2C(=O)c2cc(Cc3cccc(Cl)c3)c(Cl)o2)C[C@@H]1O	recombinant human SAE enzyme (Homo sapiens (Human), UniProt Q9UBT2)	pIC50	> 8.00
Cc1sc(C(=O)c2cncnc2N[C@@H]2C[C@H](COS(N)(=O)=O)[C@@H](O)C2)cc1[C@@]1(c2ccccc2)CCCO1 (mixture of isomers)	recombinant human SAE enzyme (Homo sapiens (Human), UniProt Q9UBT2)	pIC50	> 8.00

Ask: Given the entry `NS(=O)(=O)OC[C@H]1C[C@@H](Nc2ncncc2C(=O)c2cc(Cn3ccnc3)cs2)C[C@@H]1O` , report its measured pIC50.
Reply: 6.00 to 7.00

Ask: Continue with CC(O)(c1cccc(Cl)c1)c1csc(C(=O)c2cncnc2N[C@@H]2C[C@H](COS(N)(=O)=O)[C@@H](O)C2)c1 (single isomer, unassigned) [I-5b]
Reply: > 8.00

----------
Target: recombinant human SAE enzyme (Homo sapiens (Human), UniProt Q9UBT2)
Assay: SAE HTRF enzyme assay
Assay type: biochemical
Conditions: class symbols A/B/C
Entries and their IC50 values follow.

MOLECULE	IC50
NS(=O)(=O)OC[C@H]1C[C@@H](Nc2ncncc2C(=O)c2cc([C@H](O)c3cc(Cl)ccc3Cl)c(Cl)s2)C[C@@H]1O (mixture of isomers)	< 0.01 µM
N[C@@H](c1cccc(Br)n1)c1cc(C(=O)c2cncnc2N[C@@H]2C[C@H](COS(N)(=O)=O)[C@@H](O)[C@H]2O)sc1Cl (single isomer, unassigned) [I-10a]	< 0.01 µM
NS(=O)(=O)OC[C@H]1C[C@@H](Nc2ncncc2C(=O)c2cc(Sc3cccc(C(F)(F)F)c3)c(Cl)s2)C[C@@H]1O	0.01 to 0.1 µM
NS(=O)(=O)OC[C@H]1C[C@@H](Nc2ncncc2C(=O)c2ccc(Cc3ccccc3)o2)C[C@@H]1O	< 0.01 µM
NC(c1cccc(Br)c1)c1cc(C(=O)c2cncnc2NC2CC(O)C(COS(N)(=O)=O)C2)sc1Cl (mixture of isomers)	< 0.01 µM
NS(=O)(=O)OC[C@H]1C[C@@H](Nc2ncncc2C(=O)c2cc(Cc3cccc(Br)c3)cs2)[C@@H](F)[C@@H]1O	< 0.01 µM
CN1Cc2ccc(Cl)cc2[C@@H]1c1csc(C(=O)c2cncnc2N[C@@H]2C[C@H](COS(N)(=O)=O)[C@@H](O)C2)c1 (single isomer, unassigned) [I-265a]	< 0.01 µM
N#Cc1cccc(Cc2csc(C(=O)c3cncnc3N[C@@H]3C[C@H](COS(N)(=O)=O)[C@@H](O)C3)c2)c1	0.01 to 0.1 µM
NS(=O)(=O)OC[C@H]1C[C@@H](Nc2ncncc2C(=O)c2cc(CO)co2)C[C@@H]1O	0.1 to 1 µM
Cc1sc(C(=O)c2cncnc2N[C@@H]2C[C@H](COS(N)(=O)=O)[C@@H](O)C2)cc1S(=O)(=O)c1cccc(Cl)c1	0.01 to 0.1 µM

Ask: Given the entry `Cc1ccc(Cc2csc(C(=O)c3cncnc3N[C@@H]3C[C@H](COS(N)(=O)=O)[C@@H](O)C3)c2)o1` , report its measured IC50.
Reply: 0.1 to 1 µM

Ask: Continue with NS(=O)(=O)OC[C@H]1C[C@@H](Nc2ncncc2C(=O)c2cc([C@@H]3OCCc4ccc(Br)cc43)cs2)C[C@@H]1O (single isomer, unassigned) [I-268b]
Reply: < 0.01 µM

Ask: Continue with NS(=O)(=O)OC[C@H]1C[C@@H](Nc2ncncc2C(=O)c2cc([C@@H](O)c3cccc(Br)c3)c(Cl)s2)C[C@@H]1O (single isomer, unassigned) [I-16b]
Reply: < 0.01 µM
